List of max response values.
system: HEK293; test: Cytotoxic Profiling of Annotated Libraries Using Quantitative High-Throughput Screening (AID 1296008); conditions: Five cell lines viability, CellTiter-Glo ATP luminescence, 48-72 h; stronger effect = lower value; note: % is set by controls: 0 for no effect and ±100 for the full control effect
Inconclusive results are not listed. *1 amine or outer side, *2 acyl side, *3 side chain or, on linkers, in order; H or OH if unused. Where a SMILES comes first, the peptide text is derived from it. [ ]: non-standard residue; d: D form. The star is where a group is joined. ξ: configuration not given here. X9 = CCC(C)(N*)C(=O)C1CC[C@@H](C(=O)N[C@@H](Cc2ccccc2)C(=O)NCC(=O)O)N1; X8 = O=C([C@@H]1CC(O)CN1[*:1])[*:2]; aIle = CC[C@@H](C)[C@H](N)C(=O)O; Thr(3ξ) = CC(O)[C@H](N)C(=O)O; ξIva = CCC(C)(N)C(=O)O; Aib = CC(C)(N)C(=O)O
measuredProperty: max response (%)

compound=COC(=O)C1=CO[C@@H](O[C@@H]2O[C@H](CO)[C@@H](O)[C@H](O)[C@H]2O)[C@@H]2C(CO)=CC[C@H]12 endpointresult=-17.4
compound="COC(=O)C1=COC(O[C@@H]2O[C@H](COC(=O)/C=C/c3ccc(O)cc3)[C@@H](O)[C@H](O)[C@H]2O)C2C(CO)=CCC12 (stereo partly drawn)" endpointresult=-1.21
compound=C[C@]1(O)CC[C@@H]2C(C(=O)O)=CO[C@@H](O[C@@H]3O[C@H](CO)[C@@H](O)[C@H](O)[C@H]3O)[C@@H]21 endpointresult=-5.73
compound="CC1(C)CC[C@]2(C(=O)O[C@@H]3O[C@H](CO)[C@@H](O)[C@H](O)[C@H]3O)CC[C@]3(C)C(=CCC4[C@@]5(C)CC[C@H](O[C@H]6O[C@H](CO)[C@@H](O)[C@H](O[C@@H]7O[C@H](CO)[C@@H](O)[C@H](O)[C@H]7O)[C@H]6O)C(C)(C)C5CC[C@]43C)[C@@H]2C1 (stereo partly drawn)" endpointresult=-4.45
compound=CC(C)CC(=O)OC[C@@]1(O)C[C@@]23CC[C@H]4[C@@](C)(CCC[C@@]4(C)C(=O)O)[C@@H]2CC[C@@H]1C3 endpointresult=1.06
compound="CC[C@@H](C)[C@H](NC(=O)C(C)(C)NC(=O)[C@H](CCC(N)=O)NC(=O)C(C)(CC)NC(=O)[C@H](Cc1c[nH]c2ccccc12)NC(C)=O)C(=O)N[C@H](C(=O)NC(C)(C)C(=O)N[C@@H](CC(C)C)C(=O)NC(C)(C)C(=O)N1CCC[C@H]1C(=O)N[C@@H](CCC(N)=O)C(=O)NC(C)(C)C(=O)N1CC(O)C[C@H]1C(=O)NC(C)(CC)C(=O)C1CC[C@@H](C(=O)N[C@@H](Cc2ccccc2)C(=O)NCC(=O)O)N1)C(C)O (stereo partly drawn) (Ac-W[ξIva]Q[Aib][aIle][Thr(3ξ)][Aib]L[Aib]PQ[Aib][X8]-X9)" endpointresult=-13.1
compound="C[C@@H]1O[C@@H](O[C@@H]2[C@@H](O)[C@H](O[C@@H]3[C@@H](O)[C@@H](O)[C@H](O[C@H]4[C@H](OC(=O)[C@]56CCC(C)(C)C[C@H]5C5=CCC7[C@@]8(C)C[C@H](O)[C@H](O[C@@H]9O[C@H](C(=O)O)[C@@H](O)[C@H](O)[C@H]9O)[C@@](C)(CO)C8[C@H](O)C[C@@]7(C)[C@]5(C)C[C@H]6O)O[C@@H](CO)[C@@H]4O)O[C@H]3C)OC[C@H]2O)[C@H](O)[C@H](O)[C@H]1O (stereo partly drawn)" endpointresult=1.63
compound="CC(=O)NC1C(OC2CCC3(C)C(CCC4(C)C3CC=C3C5CC(C)(C)CCC5(C(=O)O)C(O)CC34C)C2(C)C)OC(CO)C(O)C1O (stereo not drawn)" endpointresult=-25.2

Entry source: PubChem BioAssay (NCATS)
